Target: Cathepsin B (Homo sapiens)
Test: Inhibition of human recombinant cathepsin B assessed as factor by which the product formation changes when the inhibitor binds to the enzyme-substrate complex using Z-Arg-Arg-AMC as substrate by fluorescence microplate assay
experimental.readout: fold change (FC)

*Q* For the molecule shown here, "O=c1nc(SCc2ccccc2)nc(SCc2cccc([N+](=O)[O-])c2)[nH]1" , give the reported fold change (FC).
*A* 0.15

*Q* Record: "CCCCSc1nc(SCc2ccccc2)nc(=O)[nH]1"
*A* 0

*Q* Record: "O=c1nc(SCc2ccccc2)nc(SCC2CC2)[nH]1"
*A* 0

*Q* Record: "O=c1nc(SCc2ccccc2)nc(SCc2ccccc2F)[nH]1"
*A* 0.36

*Q* Record: "N#CCSc1nc(SCc2ccccc2)nc(=O)[nH]1"
*A* 0

(a) O=c1nc(SCc2ccccc2)nc(SCc2ccccc2Cl)[nH]1
(b) N#Cc1ccc(CSc2nc(SCc3ccccc3)nc(=O)[nH]2)c(F)c1
(c) CCCSc1nc(SCc2ccccc2)nc(=O)[nH]1
*Q* Please put the entries in order of rising fold change (FC). I'd appreciate it if you listed the labels in the requested order.
*A* c, b, a

(A) COc1ccccc1CSc1nc(SCc2ccccc2)nc(=O)[nH]1
(B) N#Cc1ccc(CSc2nc(SCc3ccccc3)nc(=O)[nH]2)cc1
*Q* Hey, between A and B which has a smaller measured fold change (FC)? To answer, give the label that identifies your chosen option.
*A* B

###

Molecular target: Cathepsin B (Homo sapiens, UniProt P07858)
Test: Reversible inhibition of human recombinant cathepsin B assessed as formation of fluorescent degradation product AMC using Z-Arg-Arg-AMC as substrate by Michaelis-Menten method
experimental.readout: Ki (µM)

Use these answered entries as a reference point.
*Q* For the compound shown here, "N#Cc1ccc(CSc2nc(SCc3ccccc3)nc(=O)[nH]2)cc1" , give the reported Ki.
*A* 24.3

*Q* Record: "O=c1nc(SCc2ccccc2)nc(SCc2ccccc2Cl)[nH]1"
*A* 7.2

(1) CCCCSc1nc(SCc2ccccc2)nc(=O)[nH]1
(2) N#Cc1cccc(CSc2nc(SCc3ccccc3)nc(=O)[nH]2)c1
*Q* Return label of the item with the larger Ki. Candidates: 1 , 2 . To answer, give the label that identifies your chosen option.
*A* 1

(a) CCSc1nc(SCc2ccccc2)nc(=O)[nH]1
(b) O=c1nc(SCc2ccccc2)nc(SCc2cccc([N+](=O)[O-])c2)[nH]1
*Q* Hey, between a and b which has a smaller measured Ki? To answer, give the label that identifies your chosen option.
*A* b
(b: 11.3 µM, a: 221 µM)

###

Target: Cathepsin B (Homo sapiens, UniProt P07858)
Experiment: Partial mixed-type inhibition of human recombinant cathepsin B assessed as formation of fluorescent degradation product AMC using Z-Arg-Arg-AMC as substrate by Michaelis-Menten method
experimental.readout: Ki (µM)

Use these answered entries as a reference point.
*Q* For the compound shown here, "O=c1nc(SCc2ccccc2)nc(SCc2cccc(Cl)c2)[nH]1" , give the reported Ki.
*A* 4.5

*Q* Record: "O=c1nc(SCc2ccccc2)nc(SCc2ccccc2Cl)[nH]1"
*A* 3.6

*Q* Record: "O=c1nc(SCc2ccccc2)nc(SCc2ccc(Cl)cc2)[nH]1"
*A* 2.5

(I) O=c1nc(SCc2ccccc2)nc(SCc2ccc(F)cc2)[nH]1
(II) O=c1nc(SCc2ccccc2)nc(SCc2ccccc2F)[nH]1
*Q* Hey, between I and II which has a smaller measured Ki? To answer, give the label that identifies your chosen option.
*A* II

Sourced from ChEMBL document CHEMBL1833856
